Provenance of the data: PubChem BioAssay (NCI)

System: HL-60(TB) leukemia
Experiment: NCI tumour cell line growth inhibition, 48 h
Recorded metric: TGI

The following molecules have reported results that may help.
1. Fc1ccc(-c2ncn(C3CCNCC3)c2-c2ccnc(Oc3ccc(Cl)cc3)n2)cc1 = 11.6 µM
2. O=C(Cc1nc2ccccc2s1)C(=O)Nc1cccc(C(F)(F)F)c1 = > 100 µM
3. O=C1N=C2N=C(c3ccc(Cl)cc3)N(c3ccc(Cl)cc3)N2Sc2ccccc21 = > 100 µM
4. Cc1cccc(NC(=S)Nc2cccc(Cl)c2)n1 = > 100 µM
5. COc1ccc(N=c2nc3sc4cc(Cl)ccc4n3c(N)c2C#N)cc1 = > 94.9 µM
6. CCCCn1c(-c2ccccc2)cs/c1=N\NC(=O)Cn1c(C)nc2ccccc21 = 56.2 µM
7. O=C(NCCCN1CCN(CCCNC(=O)Nc2cc(Cl)ccc2Cl)CC1)Nc1cc(Cl)ccc1Cl = > 100 µM
8. COc1cc(/C=C2\N=C(c3ccccc3)N(c3cc4cc(Sc5ccccc5)ccc4[nH]3)C2=O)ccc1O = 4.19 µM

Respond only with TGI recorded for Cc1c(C(=O)O)sc2nc[nH]c(=O)c12
> 100 µM

Respond only with TGI recorded for CC12CC(c3ccccc3O1)C(C(=O)Nc1nccs1)C(=O)N2 (stereo unspecified)
> 100 µM

Respond only with TGI recorded for COC1CCC(CO)OO1 (stereo unspecified)
58 µM

---

Let's look at some compounds and their measured TGI.
Test system: T-47D breast
Test: NCI tumour cell line growth inhibition, 48 h

The following compounds have reported results that may help.
1) C=CCCCN(C(=O)c1ccccc1)c1ccc(C(=O)OC)o1 = > 100 µM
2) C[C@]12CCC3c4ccc(O)cc4CCC3C1CC[C@@H]2NC(=O)/C=C/c1ccc(O)c(O)c1 (some centres not stated) = > 100 µM
3) Cc1cc2ccccc2n2c1nc1ccc(O)cc12 = > 10 µM

Now turn to the next compound.
Report its TGI with T-47D breast as the test system: COc1ccc(Cn2c(=O)c(OS(=O)(=O)C(F)(F)F)c(C)c3cc4ccccc4cc32)cc1
> 100 µM

---

Tested on: MOLT-4 leukemia
Assay: NCI tumour cell line growth inhibition, 48 h
Classify as follows. Reported TGI greater than or equal to 9 µM: rule met. Reported TGI below: rule not met.

Example cases with answers are listed next.
1. O=C(Cc1nc2ccccc2s1)C(=O)Nc1cccc(C(F)(F)F)c1 = rule met
2. O=S1(=O)CCC2=CC(C(F)(F)F)=CC(C(F)(F)F)=CN21 = rule not met
3. Nc1ccnc2c1ncn2[C@H]1C[C@H](O)[C@@H](CO)O1 = rule met
4. COC1(C)CCC(OS(C)(=O)=O)CO1 (stereo unspecified) = rule met
5. CN1Cc2ccccc2C2(COc3ccccc3C2=O)C1 (stereo unspecified) = rule met

Can O=C(Oc1cncc(Cl)c1)c1cc2ccccc2sc1=O be said to have TGI at or above 9 µM?
rule met

Can COc1c(NC(C)=O)c2ccccc2c2ccccc12 be said to have TGI at or above 9 µM?
rule met

Can COc1ccc2c(CN3CCCC[C@H]3O)cc3cc4c(cc3c2c1)OCO4 be said to have TGI at or above 9 µM?
rule not met

Can CCOC(=O)c1sc(NC(=O)COc2ccc(/C=C3\CCc4cc(OC)ccc4C3=O)cc2)nc1C be said to have TGI at or above 9 µM?
rule met

Can CCC1OC2(C)CC(C#N)(C#N)C1(C#N)C(=N)O2 (stereo unspecified) be said to have TGI at or above 9 µM?
rule met

---

Test system: PC-3 prostate
Experiment: NCI tumour cell line growth inhibition, 48 h; in the data active means GI50 below about 0.43 µM; inactive means the rest
# output must be one of active, inactive

Example cases with answers are listed next.
1. CC(C)(O)c1cc(Nc2cc(Oc3cn(C4CC4)nc3C3CCOCC3)ccn2)ccn1 = inactive
2. CCN(CC)c1ccc(/C=N/N=C(N)N)cc1 = inactive
3. COc1ccc2c(CN3CCCC[C@H]3O)cc3cc4c(cc3c2c1)OCO4 = inactive

Any idea what this test logged for COc1ccc(N=c2nc3sc4cc(Cl)ccc4n3c(N)c2C#N)cc1 ?
inactive

Any idea what this test logged for CCCCS(=O)(=O)c1cc(Nc2ccc(O)c3c2C(=O)c2ccccc2C3=O)ccc1C ?
inactive

Any idea what this test logged for COc1c(OC2OC(C)C(O)C(O)C2O)c(OC)c2oc(-c3ccc(O)cc3)cc(=O)c2c1O (stereo unspecified) ?
inactive

---

Tested on: T-47D breast
Assay: NCI tumour cell line growth inhibition, 48 h; in the data active means GI50 below about 0.43 µM; inactive means the rest
# output must be one of active, inactive

1) COc1cccc(C2C(C#N)=C(N)Oc3cc(OCCCCCC[P+](c4ccccc4)(c4ccccc4)c4ccccc4)ccc32)c1 (configuration not stated) = active

Any idea what this test logged for CC(C)(C)OC(=O)NCCCCCCCCCCCCn1c2c(c3ccccc3c1=O)C(=O)c1ccccc1-2 ?
inactive

Any idea what this test logged for COC(=O)c1c(C(=O)O)c(-c2ccccc2)c(-c2ccccc2)c(-c2ccccc2)c1-c1ccccc1 ?
inactive

Any idea what this test logged for CCCCS(=O)(=O)c1cc(Nc2ccc(O)c3c2C(=O)c2ccccc2C3=O)ccc1C ?
inactive

Any idea what this test logged for COc1cc(N)c(Cl)cc1C(=O)N[C@@H]1CCN(CCCOc2ccc(F)cc2)C[C@@H]1OC ?
inactive

Any idea what this test logged for COc1ccc(N=c2nc3sc4cc(Cl)ccc4n3c(N)c2C#N)cc1 ?
inactive

Any idea what this test logged for CCOC(=O)c1sc(NC(=O)COc2ccc(/C=C3\CCc4cc(OC)ccc4C3=O)cc2)nc1C ?
inactive

Any idea what this test logged for COc1ccc2c(c1)[n+](=O)c(/C=C/C(=O)c1cc(OC)c(OC)c(OC)c1)c(C)n2[O-] ?
inactive

Any idea what this test logged for N#C/C(=C/C=C/c1cccc(Cl)c1)S(=O)c1ccccc1 (configuration not stated) ?
active

Any idea what this test logged for CCOC(=O)/C=C/c1ccc([N+](=O)[O-])o1 ?
inactive

Any idea what this test logged for O=C(NCc1cn(Cc2cccc(Oc3ccccc3)c2)nn1)c1cccnc1NCc1ccc(Cl)cc1 ?
inactive

Any idea what this test logged for CC(=O)c1nc(-c2ccc(C[C@@H](CNC(=O)CN(C)C)NC(=O)c3ccc(OC(C)C)c(Cl)c3)cc2)cn1C ?
active

Any idea what this test logged for C=C(CN1CCN(c2ccccn2)CC1)c1ccc(C(=O)Nc2ccccc2N)cc1 ?
inactive

Any idea what this test logged for C[C@]12CCC3c4ccc(O)cc4CCC3C1CC[C@@H]2NC(=O)/C=C/c1ccc(O)c(O)c1 (some centres not stated) ?
inactive

---

Let's look at some compounds and their measured GI50.
Tested on: HS 578T breast
Assay: NCI tumour cell line growth inhibition, 48 h

The following compounds have reported results that may help.
1) COc1c(OC2OC(C)C(O)C(O)C2O)c(OC)c2oc(-c3ccc(O)cc3)cc(=O)c2c1O (centres undefined) = 29.8 µM
2) COc1cccc(C2C(C#N)=C(N)Oc3cc(OCCCCCC[P+](c4ccccc4)(c4ccccc4)c4ccccc4)ccc32)c1 (centres undefined) = 0.608 µM
3) O=C(O)C(Cc1ccccc1)N1C(=O)/C(=C/C(Cl)=C/c2ccc([N+](=O)[O-])cc2)SC1=S (centres undefined) = 4.37 µM

Respond only with GI50 recorded for COc1cc(C2CC(c3ccc(Cl)cc3)=NN2C(C)=O)ccc1Oc1ccnc2cc(Cl)ccc12 (centres undefined)
2.94 µM

---

Tested on: KM12 colon
Assay: NCI tumour cell line growth inhibition, 48 h
Recorded metric: TGI

The following compounds have reported results that may help.
1) C=CC(C)(C)/C(=C\CO[Si](C(C)C)(C(C)C)C(C)C)C(=O)N(C)c1ccccc1I = > 100 µM
2) COc1cccc(C=NC23CC4CC(CC(C4)C2)C3)c1 = > 100 µM
3) O=C(NC1=C(Cl)C(=O)c2ccccc2C1=O)C(=O)c1c(O)c2ccccc2oc1=O = 31.3 µM

Respond only with TGI recorded for O=C(NNC(=O)c1ccc(Cl)cc1NC(=O)C12CC3CC(CC(C3)C1)C2)c1ccc(Cl)cc1
54.4 µM

Respond only with TGI recorded for Cn1cnnc1Sc1c([N+](=O)[O-])nc(-c2ccc([N+](=O)[O-])cc2)n1C
41.2 µM

Respond only with TGI recorded for Cc1c2oc(=O)c(C#N)cc2c2ccccn12
> 100 µM

Respond only with TGI recorded for CC(C)(O)c1cc(Nc2cc(Oc3cn(C4CC4)nc3C3CCOCC3)ccn2)ccn1
> 100 µM

Respond only with TGI recorded for C=C(CN1CCN(c2ccccn2)CC1)c1ccc(C(=O)Nc2ccccc2N)cc1
3.12 µM

---

Test system: DU-145 prostate
Experiment: NCI tumour cell line growth inhibition, 48 h; in the data active = GI50 below about 0.43 µM; inactive = the rest
# output must be one of 1 (yes) for active, 0 (no) for inactive

1) C[C@]12CCC3c4ccc(O)cc4CCC3C1CC[C@@H]2NC(=O)/C=C/c1ccc(O)c(O)c1 (stereo partly drawn) = 0 (no)
2) O=C(O)C(Cc1ccccc1)N1C(=O)/C(=C/C(Cl)=C/c2ccc([N+](=O)[O-])cc2)SC1=S (stereo not drawn) = 0 (no)

Moving on to the next compound.
Any idea what this test logged for COc1ccc(CN2c3ccccc3Sc3ccccc32)cc1O ?
1 (yes)
